Tested Target: Human recombinant GSK-3β (Homo sapiens, UniProt P49841)
Construct: purchased Millipore (Millipore Iberica S.A.U.)
Sequence (P49841 whole entry): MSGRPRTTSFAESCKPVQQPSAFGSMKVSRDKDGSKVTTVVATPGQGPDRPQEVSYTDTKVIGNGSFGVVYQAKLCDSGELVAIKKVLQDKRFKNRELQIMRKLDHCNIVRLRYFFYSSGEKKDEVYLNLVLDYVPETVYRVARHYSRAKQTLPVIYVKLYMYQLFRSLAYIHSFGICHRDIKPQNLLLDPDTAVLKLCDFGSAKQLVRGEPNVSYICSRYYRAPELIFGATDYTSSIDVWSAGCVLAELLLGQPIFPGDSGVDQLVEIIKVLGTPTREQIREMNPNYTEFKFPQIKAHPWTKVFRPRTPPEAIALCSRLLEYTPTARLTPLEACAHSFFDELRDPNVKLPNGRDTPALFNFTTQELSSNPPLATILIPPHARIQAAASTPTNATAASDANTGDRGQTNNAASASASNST
Test Details: Inhibition of GSK-3 (Kinase-Glo luminescent assay; ADP-Glo for kinetics)
Type: biochemical
Experimental Conditions: human recombinant enzyme; 1 μM ATP, 30 min, 30°C; read-out: GSK-3 inhibitory activity in vitro IC50
Readout Kind: IC50 (nM)

| Smiles Code | Readout Kind | Unit Abbrev | Observed Measurement |
| --- | --- | --- | --- |
| COc1ccc(CNC(=O)Nc2nc(C)c(C(C)=O)s2)cc1 | IC50 | nM | 620 |

----------
Tested Target: casein kinase-1δ (CK-1δ) (Homo sapiens, UniProt P48730)
Sequence (P48730 whole entry): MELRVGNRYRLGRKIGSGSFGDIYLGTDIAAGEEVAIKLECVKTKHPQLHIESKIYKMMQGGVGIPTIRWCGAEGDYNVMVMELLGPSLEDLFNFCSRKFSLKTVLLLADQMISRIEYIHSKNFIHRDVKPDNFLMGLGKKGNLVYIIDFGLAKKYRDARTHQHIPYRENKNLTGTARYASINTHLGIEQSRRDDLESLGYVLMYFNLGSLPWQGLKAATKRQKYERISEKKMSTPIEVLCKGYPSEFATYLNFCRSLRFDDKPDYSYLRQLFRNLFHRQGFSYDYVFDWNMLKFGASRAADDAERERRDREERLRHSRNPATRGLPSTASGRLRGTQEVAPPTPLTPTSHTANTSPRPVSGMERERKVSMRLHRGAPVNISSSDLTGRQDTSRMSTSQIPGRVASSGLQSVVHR
Test Details: CK-1δ inhibition following a described protocol
Assay type: biochemical

| Compound | Unit Abbrev | IC50 |
| --- | --- | --- |
| COc1ccc(CNC(=O)Nc2nc(C)c(C(C)=O)s2)cc1 [VP2.51] | µM | 7.28 |

Reference source: paper PMC5025054
